Consider the following molecules and their measured growth readings.
- Tested on: A549/ATCC NSCLC
- testMethodNotes: NCI-60 one-dose screen, 48 h (100 = growth as untreated, 0 = no growth, -100 = all killed)
- conditionLabel: 10 µM unless noted
This is part of a sample that, as a whole, favours compounds with a hit. Of some 83,000 tested, about 20% had one in any assay.
// return numeric value only (unit: %, not printed)

Challenge: Record request: growth value, item "Cc1ccc(Cl)c(NS(=O)(=O)c2ccc(-c3cnc(C4CC4)o3)cc2)c1"
Response given: 26.5

Challenge: Please do the same for "O=C(Nc1ccc(-n2cc(-c3ccncc3)c(-c3ccc(Cl)c(O)c3)n2)cc1)N1CCOCC1" as well.
Response given: 111

Challenge: Okay, and "O=C(c1ccc(Nc2nccc(NCCCCNc3ccnc4cc(Cl)ccc34)n2)cc1)N1CCCCC1" ?
Response given: 25.8

* * *

- Tested on: HOP-62 NSCLC
- testMethodNotes: NCI-60 one-dose screen, 48 h (100 = growth as untreated, 0 = no growth, -100 = all killed)
- conditionLabel: 10 µM unless noted
The panel holds about 83,000 compounds, 20% with a hit somewhere; the sample as a whole holds those more often.
growth vs 70%: less than gives Criterion met; not less than gives Criterion not met.

Below, 3 compounds whose answers are already recorded.
Cc1ccc(Nc2ccc(Nc3ccc(C)cc3)c3c2C(=O)c2cccc(O)c2C3=O)cc1 | Criterion not met
CC(C)(C)n1cc(-c2ccnc(NCCCNS(=O)(=O)c3ccccc3)c2)c(-c2ccccc2)n1 | Criterion not met
COc1ccc(Cl)cc1NC(=O)C(Br)C(Br)C(=O)O (configuration not stated) | Criterion met

Challenge: Hi there! Is growth for CCCCCCCOc1c(OC)cc(C2CC(=O)Nc3c2c(C)nn3-c2nc3ccccc3[nH]2)cc1OC (configuration not stated) below 70%, do you know?
Response given: Criterion met

Challenge: Same read-out for N#CC1=C(NC=O)Oc2c(ccc3ccccc23)C1c1ccccc1 (configuration not stated) ?
Response given: Criterion met

Challenge: Moving on to "O=S(=O)(NCCCNc1cc(-c2c(-c3cccc(O)c3)nc3sccn23)ccn1)c1cccc(Cl)c1"
Response given: Criterion not met

Challenge: OC(c1cccc(-n2ccc(C(F)(F)F)n2)c1)c1cnccc1NC1CCCCCC1 (configuration not stated) ?
Response given: Criterion not met

Challenge: Proceed to "C[C@]12CC[C@@H]3c4cc(OC(F)F)c(O)cc4CC[C@H]3[C@@H]1CC[C@@H]2OS(N)(=O)=O"
Response given: Criterion met

Challenge: Please give the result for "Cn1ccc2c(c1=O)C(=O)c1nccc3c1c-2nc1ccccc13" too.
Response given: Criterion met

* * *

- System: SK-MEL-5 melanoma
- testMethodNotes: NCI-60 one-dose screen, 48 h
- conditionLabel: 10 µM unless noted
The panel holds about 83,000 compounds, 20% with a hit somewhere; the sample as a whole holds those more often. Activity calls are given as the source filed them. Rule for the calls: active = growth percent below 10; inactive = the rest.
Classes to choose from: active, inactive

Completed entries (count: 4):
C=C1C(=O)O[C@H]2[C@H]1CC/C(COC(=O)C(=O)c1cn(C)c3ccc(OC)cc13)=C\CC[C@@]1(C)O[C@@H]21 | active
O=c1c2cc(F)ccc2sc2c(NCCN3CCCCC3)nc3ccccc3c12 | inactive
O=C(Nc1cccc(Cl)c1)c1cc(N=Nc2ccc([N+](=O)[O-])cc2Cl)ccc1O | inactive
Cc1ccc(-c2cc(-c3ccccc3C)[nH]c(=O)c2C#N)s1 | inactive

Consider the record given below.
Challenge: Hello, I am checking results. What call was entered for "COC(=O)c1c2c(c(C)[n+]([O-])c1C)C(=O)C(NCc1ccc(F)c(Cl)c1)=CC2=O" ?
Response given: active

* * *

- Tested on: PC-3 prostate
- testMethodNotes: NCI-60 one-dose screen, 48 h
- conditionLabel: 10 µM unless noted
This is part of a sample that, as a whole, favours compounds with a hit. Of some 83,000 tested, about 20% had one in any assay. The source made the active and inactive calls. The calls were made as follows: active = growth percent below 10; inactive = the rest.
Please answer using one outcome listed in 1 = active, 0 = inactive

Example entries and their recorded answers appear below.
COc1ccc(-c2cc(-c3cc(OC)c(OC)c(OC)c3)c(C#N)c(N3CCOCC3)n2)cc1O | 0
O=[N+]([O-])c1ccc(-c2cc(-c3ccc(Nc4nc(Nc5ccc(Cl)cc5)nc(Nc5ccc(Cl)cc5)n4)cc3)no2)cc1 | 0
COc1ccc2c(c1)O/C(=C\c1cccc(OCC(=O)Nc3nc(C)c(C)s3)c1)C2=O | 1

Challenge: Status in this test for "NC[C@H](O)c1ccc(O)c(O)c1" ?
Response given: 0

Challenge: Again, but for "Cc1ccc(-c2cc(-c3cccnc3)[nH]c(=O)c2C#N)cc1"
Response given: 0

Challenge: Also "O=[N+]([O-])c1ccc(Sc2cccc[n+]2[O-])c2nonc12" , if possible.
Response given: 0

Challenge: Next up: "CN1CCN(C(=O)c2c3c(n4ccccc24)C(=O)c2ncccc2C3=O)CC1"
Response given: 0

Challenge: Param item: COc1ccc(C2c3ccc4ccccc4c3Oc3nc(C)[nH]c(=O)c32)cc1 (centres undefined)
Response given: 0

Challenge: Also "CC/C=C\C[C@H](O)C/C=C1/C(=O)C=C[C@@H]1C/C=C\CCCC(=O)OC" , if possible.
Response given: 1

* * *

Item-by-item account of growth
- Test system: UO-31 renal
- testMethodNotes: NCI-60 one-dose screen, 48 h (100 = growth as untreated, 0 = no growth, -100 = all killed)
- conditionLabel: 10 µM unless noted
This is part of a sample that, as a whole, favours compounds with a hit. Of some 83,000 tested, about 20% had one in any assay.
Please respond with the number in % and leave the unit unwritten.

O=C(c1ccc(Nc2nccc(NCCCCNc3ccnc4cc(Cl)ccc34)n2)cc1)N1CCCCC1 | 73.9
O=c1[nH]nc(-c2ccccc2)c2c(-c3ccccc3)onc12 | 16.9
Cc1ccc(/C=C/c2c(C(=O)/C=C/c3ccc(C(F)(F)F)cc3)c(C)nc3ccccc23)cc1 | -98

Challenge: Notebook entry, UO-31 renal assay: growth of "COc1ccc(/C=c2\nc3n(-c4ccccc4)c4nc5c6c(sc5c(=N)n4n-3c2=O)CCCC6)cc1" = ?
Response given: 49.5

Challenge: Query "N#Cc1c(-c2cccc(Cl)c2)cc(-c2cccc(F)c2)[nH]c1=O" next
Response given: 80.7

Challenge: Note, next up: "Cc1cc(N2CCCC2)nc(NCc2cc(Nc3ccnc4cc(Cl)ccc34)ccc2F)n1"
Response given: -59.1

Challenge: // query: "CC(C)(C)n1cc(-c2ccnc(NCCCNS(=O)(=O)c3ccccc3)c2)c(-c2ccccc2)n1"
Response given: 59

Challenge: Same again, this time with "COc1cc(N=Nc2cc(Cc3ccc(N(C)C)cc3)c(N)cc2N(C)C)c2ncccc2c1"
Response given: -12.6

Challenge: # iterate: "COc1cccc(C(=O)NCCNc2cc(-c3cn(-c4ccccc4)nc3-c3cccc(OC)c3)ccn2)c1"
Response given: 39.9

Challenge: Continue with "c1ccc2cc3nc4cc5ccccc5cc4nc3cc2c1"
Response given: 89

* * *

- System: NCI-H460 lung
- testMethodNotes: NCI-60 one-dose screen, 48 h
- conditionLabel: 10 µM unless noted
Compounds without any hit were thinned out: in the full panel of roughly 83,000, 20% have a hit. Activity calls are given as the source filed them. Rule for the calls: active = growth percent below 10; inactive = the rest.
// one of true for active, false for inactive, no free text

Please review the following examples before continuing.
CCCCOc1nc2ccccc2cc1C1CNC(=O)c2ccccc2N1 (stereo not drawn) | true
CC(C)CC(NC(=O)CN(Cc1ccccc1)S(C)(=O)=O)C(=O)O (stereo not drawn) | false

Challenge: I'd appreciate the recorded outcome for "CCCCCCCCCCN(CCCCCCCCCC)CC(=O)c1ccc2cc(Br)c3ccccc3c2c1" from this test.
Response given: true

* * *

- Test system: 786-0 renal
- testMethodNotes: NCI-60 one-dose screen, 48 h
- conditionLabel: 10 µM unless noted
This is part of a sample that, as a whole, favours compounds with a hit. Of some 83,000 tested, about 20% had one in any assay. Activity calls are given as the source filed them. Rule for the calls: active = growth percent below 10; inactive = the rest.
Just give me one of these, please: yes = active, no = inactive

Example results:
COc1ccc(-c2nc3sccn3c2-c2cc(-c3cc(OC)c(OC)c(OC)c3)on2)cc1 | no
O=c1[nH]c2ccccc2n1C1CCN(CCOc2ccccc2)CC1 | no
COc1ccc2cc(-c3cc(OC)c(OC)c(OC)c3)c(=O)oc2c1 | no

Challenge: Check the results log: what was the call for "NC(=S)Nc1cccc(O)c1" ?
Response given: no

Challenge: Continue with "O=C(O)CN1C(=O)CCC1=O"
Response given: no

Challenge: What about "Cc1nn(-c2ccccc2)c(Cl)c1/C=C(/NC(=O)c1ccccc1)c1nc2ccccc2[nH]1" ?
Response given: no

Challenge: COc1cccc2c1C(=O)c1c(O)c3c(c(O)c1C2=O)CC(O)(/C(C)=N/NC(=O)CCCCC(=O)N/N=C(\C)C1(O)Cc2c(O)c4c(c(O)c2C(OC2CC(N)C(O)C(C)O2)C1)C(=O)c1c(OC)cccc1C4=O)CC3OC1CC(N)C(O)C(C)O1 (stereo not drawn) ?
Response given: yes

Challenge: Quick one: "NC(=S)N/N=C/Cc1ccccc1"
Response given: no
